- experiment summary: In vivo pharmacokinetics in Wistar rat
- condition details: plasma, iv, 2 mg/kg
value type: Cmax

Cc1cc(-c2ccc(C#N)cc2)cc(C)c1Oc1nc(NC2CCN(Cc3ccc(C(N)=O)cc3)CC2)nc2ccsc12 [Compound 26] = 941 ng/mL

---

- Test system: HIV-1 F227L + V106A double-mutant strain
- experiment summary: microbe, parasite or virus in culture
- Format: cell-based
- condition details: ratio of EC50 (resistant viral strain)/EC50 (wild-type viral strain)
Returns rule met if the recorded RF F227L + V106A is greater than or equal to 5, and rule not met otherwise.

Cc1cc(-c2cccs2)cc(C)c1Oc1nc(NC2CCN(Cc3ccc(S(N)(=O)=O)cc3)CC2)nc2ccsc12 [Compound 15] = rule not met
Cc1cc(C#N)cc(C)c1Oc1nc(Nc2ccc(C#N)cc2)nc(N)c1Br [ETR, Etravirine, reference compound] = rule not met
Cc1cc(-c2ccoc2)cc(C)c1Oc1nc(NC2CCN(Cc3ccc(S(N)(=O)=O)cc3)CC2)nc2ccsc12 [Compound 13] = rule met
COc1ccc(-c2cc(C)c(Oc3nc(NC4CCN(Cc5ccc(S(N)(=O)=O)cc5)CC4)nc4ccsc34)c(C)c2)cc1 [Compound 21] = rule not met
Cc1cc(-c2ccc(N(C)C)cc2)cc(C)c1Oc1nc(NC2CCN(Cc3ccc(S(N)(=O)=O)cc3)CC2)nc2ccsc12 [Compound 29] = rule not met
Cc1cc(-c2ccccc2)cc(C)c1Oc1nc(NC2CCN(Cc3ccc(S(N)(=O)=O)cc3)CC2)nc2ccsc12 [Compound 19] = rule not met
Cc1cc(-c2ccsc2)cc(C)c1Oc1nc(NC2CCN(Cc3ccc(S(N)(=O)=O)cc3)CC2)nc2ccsc12 [Compound 17] = rule not met
Cc1cc(-c2ccc(F)cc2)cc(C)c1Oc1nc(NC2CCN(Cc3ccc(S(N)(=O)=O)cc3)CC2)nc2ccsc12 [Compound 23] = rule not met
Cc1cc(-c2cccc(C#N)c2)cc(C)c1Oc1nc(NC2CCN(Cc3ccc(C(N)=O)cc3)CC2)nc2ccsc12 [Compound 28] = rule met
Cc1cc(-c2ccco2)cc(C)c1Oc1nc(NC2CCN(Cc3ccc(C(N)=O)cc3)CC2)nc2ccsc12 [Compound 12] = rule met
Cc1cc(-c2ccsc2)cc(C)c1Oc1nc(NC2CCN(Cc3ccc(C(N)=O)cc3)CC2)nc2ccsc12 [Compound 18] = rule not met
Cc1cc(-c2cccc(N(C)C)c2)cc(C)c1Oc1nc(NC2CCN(Cc3ccc(S(N)(=O)=O)cc3)CC2)nc2ccsc12 [Compound 31] = rule not met
Cc1cc(-c2ccc(C#N)cc2)cc(C)c1Oc1nc(NC2CCN(Cc3ccc(S(N)(=O)=O)cc3)CC2)nc2ccsc12 [Compound 25] = rule not met
Cc1cc(-c2ccccc2)cc(C)c1Oc1nc(NC2CCN(Cc3ccc(C(N)=O)cc3)CC2)nc2ccsc12 [Compound 20] = rule met
Cc1cc(-c2cccc(C#N)c2)cc(C)c1Oc1nc(NC2CCN(Cc3ccc(S(N)(=O)=O)cc3)CC2)nc2ccsc12 [Compound 27] = rule not met
Cc1cc(-c2cccs2)cc(C)c1Oc1nc(NC2CCN(Cc3ccc(C(N)=O)cc3)CC2)nc2ccsc12 [Compound 16] = rule met
Cc1cc(-c2ccoc2)cc(C)c1Oc1nc(NC2CCN(Cc3ccc(C(N)=O)cc3)CC2)nc2ccsc12 [Compound 14] = rule met
Cc1cc(-c2ccc(N(C)C)cc2)cc(C)c1Oc1nc(NC2CCN(Cc3ccc(C(N)=O)cc3)CC2)nc2ccsc12 [Compound 30] = rule met
Cc1cc(-c2ccco2)cc(C)c1Oc1nc(NC2CCN(Cc3ccc(S(N)(=O)=O)cc3)CC2)nc2ccsc12 [Compound 11] = rule not met
COc1ccc(-c2cc(C)c(Oc3nc(NC4CCN(Cc5ccc(C(N)=O)cc5)CC4)nc4ccsc34)c(C)c2)cc1 [Compound 22] = rule met
Cc1cc(-c2cccc(N(C)C)c2)cc(C)c1Oc1nc(NC2CCN(Cc3ccc(C(N)=O)cc3)CC2)nc2ccsc12 [Compound 32] = rule not met
Cc1cc(-c2ccc(C#N)cc2)cc(C)c1Oc1nc(NC2CCN(Cc3ccc(C(N)=O)cc3)CC2)nc2ccsc12 [Compound 26] = rule met
Cc1cc(-c2ccc(F)cc2)cc(C)c1Oc1nc(NC2CCN(Cc3ccc(C(N)=O)cc3)CC2)nc2ccsc12 [Compound 24] = rule not met

// provenance: paper PMC7280082
